- assay info: qHTS RealTime-Glo MT Cell Viability Assay in HEK293 cells - 32 hour (AID 1224868); further: nearly all actives have a fitted effect of over 50% in size
- test settings: RealTime-Glo luminescence; series mostly up to 76.8 µM
Inconclusive results are not listed. Active and inactive are the calls of the source. The call rests on the fitted dose curve; in most records, active means well fitted cell-killing curve with a large enough effect in the repeat runs; inconclusive means weak or mixed curves, or effect the other way; inactive means flat fitted curve, though single readings scatter.
Entry note: the call must match one of 1 for active, 0 for inactive

Answered examples (6):
*Q* Just curious, what result did "COc1cc(C(C)(C)C)c(O)c(C(C)(C)C)c1" get here?
*A* 0

*Q* Just curious, what result did "CN(C)CC/C=C1\c2ccccc2COc2ccccc21" get here?
*A* 0

*Q* Just curious, what result did CC(C)NCC(O)c1cc(O)cc(O)c1 (stereo not drawn) get here?
*A* 0

*Q* Just curious, what result did CC(=O)/C=C/C1C(C)=CCCC1(C)C (stereo not drawn) get here?
*A* 0

*Q* Just curious, what result did "FC(F)(F)C(F)(F)C(F)(F)C(F)(F)C(F)(F)C(F)(F)CCI" get here?
*A* 0

*Q* Just curious, what result did "CC(=O)N(CC(=O)N(C)C)c1ccccc1" get here?
*A* 0

Next:
*Q* Just curious, what result did "CCN(CC)CCc1nc(-c2ccccc2)no1" get here?
*A* 0

*Q* Just curious, what result did "CC[C@]12CCCN3CCc4c(n(c5ccccc45)C(=O)C1)[C@@H]32" get here?
*A* 1

*Q* Just curious, what result did O=C=NC1CCC(CC2CCC(N=C=O)CC2)CC1 (stereo not drawn) get here?
*A* 0

*Q* Just curious, what result did "COCCOCCOCCOCCOC" get here?
*A* 0

*Q* Just curious, what result did "COc1ccccc1OC(=O)Oc1ccccc1OC" get here?
*A* 0

*Q* Just curious, what result did CC(C)NCC(O)COc1ccc(CC(N)=O)cc1 (stereo not drawn) get here?
*A* 0

*Q* Just curious, what result did "Oc1ccc(Sc2ccc(O)cc2)cc1" get here?
*A* 1
